Where do these numbers come from? They come from PubChem BioAssay AID1963847.

Tested on: 415267-285-R-J2-PDC complex spheroid viability
assay-notes: Anticancer human tumor 415267-285-R-J2-PDC patient-derived breast carcinoma cell line growth inhibition [POLQ]
test-settings: second compound 1 µM; first compound 0.316 µM; active compounds read low
value-type: viability, T/C

COc1cccc(OCCCN)c1-c1cc(Nc2cnc(C#N)cn2)n[nH]1 + COC1C(OC(N)=O)C(O)C(Oc2ccc3c(O)c(NC(=O)c4ccc(O)c(CC=C(C)C)c4)c(=O)oc3c2C)OC1(C)C ... 5.8%
COc1cccc2c1C(=O)c1c(O)c3c(c(O)c1C2=O)CC(O)(C(=O)CO)CC3OC1CC(N)C(O)C(C)O1 (stereo unspecified) + Cc1cccc(N(C)C(=O)C2C(O)CCN2c2nc(C)cc(C(F)(F)F)c2C#N)c1 ... 4.35%
COc1cccc(OCCCN)c1-c1cc(Nc2cnc(C#N)cn2)n[nH]1 + Nc1ccc(C#CCN(C(=O)Cc2ncc(C(F)(F)F)cc2C(F)(F)F)c2ccc(F)cc2)nn1 ... 5.41%
CC1COCCN1c1cc(C2(S(C)(=N)=O)CC2)nc(-c2ccnc3[nH]ccc23)n1 (stereo unspecified) + Nc1ccc(C#CCN(C(=O)Cc2ncc(C(F)(F)F)cc2C(F)(F)F)c2ccc(F)cc2)nn1 ... 81.9%
Nc1ccn(C2OC(CO)C(O)C2(F)F)c(=O)n1 (stereo unspecified) + Nc1ccc(C#CCN(C(=O)Cc2ncc(C(F)(F)F)cc2C(F)(F)F)c2ccc(F)cc2)nn1 ... 5.24%
O=C(c1cc(Cc2n[nH]c(=O)c3ccccc23)ccc1F)N1CCN(C(=O)C2CC2)CC1 + Cc1cccc(N(C)C(=O)C2C(O)CCN2c2nc(C)cc(C(F)(F)F)c2C#N)c1 ... 95.8%
CC(C)n1c(=O)n(C)c2cnc3cc(F)c(-c4ccc(OCCCN5CCCCC5)nc4)cc3c21 + Nc1ccc(C#CCN(C(=O)Cc2ncc(C(F)(F)F)cc2C(F)(F)F)c2ccc(F)cc2)nn1 ... 96.4%
COc1cc2cc(C(=O)CCC(=O)O)sc2cc1OC + COC1C(OC(N)=O)C(O)C(Oc2ccc3c(O)c(NC(=O)c4ccc(O)c(CC=C(C)C)c4)c(=O)oc3c2C)OC1(C)C ... 109%
COc1ccc([C@@H](O)c2cc(-c3ncnc4cc(N5CCOCC5)ccc34)c(F)cc2Cl)nn1 + Nc1ccc(C#CCN(C(=O)Cc2ncc(C(F)(F)F)cc2C(F)(F)F)c2ccc(F)cc2)nn1 ... 104%
CNCc1ccc(-c2[nH]c3cc(F)cc4c3c2CCNC4=O)cc1 + Nc1ccc(C#CCN(C(=O)Cc2ncc(C(F)(F)F)cc2C(F)(F)F)c2ccc(F)cc2)nn1 ... 92.9%
C=CCn1c(=O)c2cnc(Nc3ccc(N4CCN(C)CC4)cc3)nc2n1-c1cccc(C(C)(C)O)n1 + Nc1ccc(C#CCN(C(=O)Cc2ncc(C(F)(F)F)cc2C(F)(F)F)c2ccc(F)cc2)nn1 ... 61.1%

---

Test system: 415267-285-R-J2-PDC complex spheroid viability
assay-notes: Anticancer human tumor 415267-285-R-J2-PDC cell line growth inhibition [POLQ];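 also: luminescence used as stand-in measure of viable cells; spheroids exposed to compounds for one week before readout; 100% = DMSO vehicle control viability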
test-settings: second compound 3.16 µM; first compound 0.01 µM; active compounds read low
value-type: viability, T/C (%)

C=CCn1c(=O)c2cnc(Nc3ccc(N4CCN(C)CC4)cc3)nc2n1-c1cccc(C(C)(C)O)n1 + Nc1ccc(C#CCN(C(=O)Cc2ncc(C(F)(F)F)cc2C(F)(F)F)c2ccc(F)cc2)nn1 ... 93.1
COc1cccc(OCCCN)c1-c1cc(Nc2cnc(C#N)cn2)n[nH]1 + COC1C(OC(N)=O)C(O)C(Oc2ccc3c(O)c(NC(=O)c4ccc(O)c(CC=C(C)C)c4)c(=O)oc3c2C)OC1(C)C ... 8.65
Cn1ncnc1[C@H]1c2n[nH]c(=O)c3cc(F)cc(c23)N[C@@H]1c1ccc(F)cc1 + COC1C(OC(N)=O)C(O)C(Oc2ccc3c(O)c(NC(=O)c4ccc(O)c(CC=C(C)C)c4)c(=O)oc3c2C)OC1(C)C ... 105
Cn1ncnc1[C@H]1c2n[nH]c(=O)c3cc(F)cc(c23)N[C@@H]1c1ccc(F)cc1 + Nc1ccc(C#CCN(C(=O)Cc2ncc(C(F)(F)F)cc2C(F)(F)F)c2ccc(F)cc2)nn1 ... 91.6
C=CCn1c(=O)c2cnc(Nc3ccc(N4CCN(C)CC4)cc3)nc2n1-c1cccc(C(C)(C)O)n1 + Cc1cccc(N(C)C(=O)C2C(O)CCN2c2nc(C)cc(C(F)(F)F)c2C#N)c1 ... 109
CC[C@@]1(O)C(=O)OCc2c1cc1n(c2=O)Cc2cc3c(CN(C)C)c(O)ccc3nc2-1 + Nc1ccc(C#CCN(C(=O)Cc2ncc(C(F)(F)F)cc2C(F)(F)F)c2ccc(F)cc2)nn1 ... 115
CC[C@@]1(O)C(=O)OCc2c1cc1n(c2=O)Cc2cc3c(CN(C)C)c(O)ccc3nc2-1 + COC1C(OC(N)=O)C(O)C(Oc2ccc3c(O)c(NC(=O)c4ccc(O)c(CC=C(C)C)c4)c(=O)oc3c2C)OC1(C)C ... 94
Cn1ncnc1[C@H]1c2n[nH]c(=O)c3cc(F)cc(c23)N[C@@H]1c1ccc(F)cc1 + Cc1cccc(N(C)C(=O)C2C(O)CCN2c2nc(C)cc(C(F)(F)F)c2C#N)c1 ... 103
CCc1c2c(nc3ccc(O)cc13)-c1cc3c(c(=O)n1C2)COC(=O)[C@]3(O)CC + Nc1ccc(C#CCN(C(=O)Cc2ncc(C(F)(F)F)cc2C(F)(F)F)c2ccc(F)cc2)nn1 ... 9.28
CC[C@@]1(O)C(=O)OCc2c1cc1n(c2=O)Cc2cc3c(CN(C)C)c(O)ccc3nc2-1 + Cc1cccc(N(C)C(=O)C2C(O)CCN2c2nc(C)cc(C(F)(F)F)c2C#N)c1 ... 91.7
COc1cccc(OCCCN)c1-c1cc(Nc2cnc(C#N)cn2)n[nH]1 + Cc1cccc(N(C)C(=O)C2C(O)CCN2c2nc(C)cc(C(F)(F)F)c2C#N)c1 ... 10.1
C=CCn1c(=O)c2cnc(Nc3ccc(N4CCN(C)CC4)cc3)nc2n1-c1cccc(C(C)(C)O)n1 + COC1C(OC(N)=O)C(O)C(Oc2ccc3c(O)c(NC(=O)c4ccc(O)c(CC=C(C)C)c4)c(=O)oc3c2C)OC1(C)C ... 101
COc1cccc(OCCCN)c1-c1cc(Nc2cnc(C#N)cn2)n[nH]1 + Nc1ccc(C#CCN(C(=O)Cc2ncc(C(F)(F)F)cc2C(F)(F)F)c2ccc(F)cc2)nn1 ... 9.02
CCc1c2c(nc3ccc(O)cc13)-c1cc3c(c(=O)n1C2)COC(=O)[C@]3(O)CC + Cc1cccc(N(C)C(=O)C2C(O)CCN2c2nc(C)cc(C(F)(F)F)c2C#N)c1 ... 8.16
CCc1c2c(nc3ccc(O)cc13)-c1cc3c(c(=O)n1C2)COC(=O)[C@]3(O)CC + COC1C(OC(N)=O)C(O)C(Oc2ccc3c(O)c(NC(=O)c4ccc(O)c(CC=C(C)C)c4)c(=O)oc3c2C)OC1(C)C ... 9.67
